- Tested on: PPARg DBDmut IVT, anti-PPARg (DBD mutation: PPARg1 K132A/R137A, NR concentration 270 nM)
- assay.info: PBM binding z-score (relative to random genomic background probes); higher = stronger binding; sequences stand for … in GC…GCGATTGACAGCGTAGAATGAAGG
readout.name: PBM binding z-score

Task: Endpoint output: PBM binding z-score of CCGACTGGGGCAAGGTTGCCATAACGCACAGCCA . Value?
Result: -1.02

Task: Can you look up the measured PBM binding z-score of ATATGTAGGTTAAGGATCATTCAGGTTGGTTCGC for me?
Result: 2.12

Task: Fill blank: measured PBM binding z-score of the sequence TGAATGAGGTTAAAGATTAGGGAACGTGGCGTCG is ____.
Result: 0.276

Task: What does the data say about its PBM binding z-score? Entry: CGTCCACGGTCAGCAGGTCAGTGAAAGCGACGTG
Result: -1.32

Task: # PBM binding z-score lookup, item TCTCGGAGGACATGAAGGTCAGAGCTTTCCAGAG
Result: -1.67

Task: Could you share which PBM binding z-score value was measured for CTACCAAGGTGAACAAGCTCGTTGATTACTATTC ?
Result: 0.253

Task: Endpoint output: PBM binding z-score of CAAACTAGCTCAAGGTCAAAGTCGGTTTGTGCCA . Value?
Result: -0.234

Task: Sample CGAACGAGGGCATGAGGTGATAGCAAATGCCGAT — what was its PBM binding z-score?
Result: -0.341

Task: Could you tell me which PBM binding z-score is on file for CCTTTCGGGTCACGAGGTTATAGCACGACGAGCG ?
Result: 2.42

Task: Find the recorded PBM binding z-score belonging to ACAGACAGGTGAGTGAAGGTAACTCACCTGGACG and report it.
Result: 0.131

Task: Could you tell me which PBM binding z-score is on file for ATCGAAAGATCGTGAGGTGAGTATACAGAAAGGC ?
Result: 0.767

Task: Record request: PBM binding z-score value, item AGTCAATGTTCATCTAGGTAACGTAAGATATGCT
Result: 0.949

###

- Tested on: PPARg:RXRa 90nM:30nM, anti-RXR (NR concentration 90 nM, RXRa partner concentration 30 nM)
- assay.info: PBM binding z-score (relative to random genomic background probes); higher = stronger binding; sequences stand for … in GC…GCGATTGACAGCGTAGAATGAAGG
readout.name: PBM binding z-score
Keep it simple and answer with nothing but the number.

Task: Requested field: PBM binding z-score. Item: ACTAGTTTGTCAGCTGAGGTCACACACAATTCGG
Result: 1.86

Task: What does the data say about its PBM binding z-score? Entry: CATACAGGGTCAGCTAGGGCAGAGTAGGGACGGC
Result: 1.75

Task: Value lookup for PBM binding z-score; key = CCGAGTAGGTTATGGCGCATTCAGGCAACGGTGA
Result: 0.107

Task: What does the record list as PBM binding z-score for CCTACTGGGCCAAGGTCCTTGATCAGTCAAAGCA ?
Result: 0.845

Task: // returns reported PBM binding z-score for input TGGATGAGGTTAAAGATCAGGGAACGTGGCGTCG
Result: 4.98

Task: Quick one: PBM binding z-score for TCTAGCAGGCCAGAGGGTAACTCAAGAGGTACGG ?
Result: 3.26

Task: Fill in: PBM binding z-score of AGTCAAAGTCCAGGACGAGGTAACGTAAAGCACG is ___
Result: -0.153

Task: # get_value(readout='PBM binding z-score', item= CCTAGTTCGTCAAGGTCACACACGCTATAGGTAC )
Result: 2.23
